- MEASURED TARGET: T1, Human TROP2 ECD (31-274 AA), biotinylated (human, UniProt P09758 31-274, biotinylated (site not stated))
- T1 construct: also called tumor-associated calcium signal transducer 2; Human TROP2-biotin
- T1 sequence: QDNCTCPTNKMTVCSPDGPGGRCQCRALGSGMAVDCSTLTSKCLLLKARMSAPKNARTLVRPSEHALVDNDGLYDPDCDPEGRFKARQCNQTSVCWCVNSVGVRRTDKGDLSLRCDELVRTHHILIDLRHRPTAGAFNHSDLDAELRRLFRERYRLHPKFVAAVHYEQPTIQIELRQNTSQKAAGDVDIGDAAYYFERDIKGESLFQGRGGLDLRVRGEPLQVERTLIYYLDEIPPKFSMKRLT
- TEST SUMMARY: BLI (Octet), dissociation half-life from biotinylated human TROP2 ECD
QUANTITY KIND: t1/2 (min)
Only the number, expressed in min, is required.

TBD-15 (anti-TROP2 Fab, HC G102A) (Fab, V domains shown) VH: QVQLQQSGSELKKPGASVKVSCKASGYTFTNYGMNWVKQAPGQGLKWMGWINTYTGEPTYTDDFKGRFAFSLDTSVSTAYLQISSLKADDTAVYFCARGGFASSYWYFDVWGQGSLVTVSS VL: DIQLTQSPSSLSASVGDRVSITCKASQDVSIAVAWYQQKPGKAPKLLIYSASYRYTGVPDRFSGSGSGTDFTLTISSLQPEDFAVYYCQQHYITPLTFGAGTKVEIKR : 1
TBD-16 (anti-TROP2 Fab, HC S103A) (Fab, V domains shown) VH: QVQLQQSGSELKKPGASVKVSCKASGYTFTNYGMNWVKQAPGQGLKWMGWINTYTGEPTYTDDFKGRFAFSLDTSVSTAYLQISSLKADDTAVYFCARGGFGASYWYFDVWGQGSLVTVSS VL: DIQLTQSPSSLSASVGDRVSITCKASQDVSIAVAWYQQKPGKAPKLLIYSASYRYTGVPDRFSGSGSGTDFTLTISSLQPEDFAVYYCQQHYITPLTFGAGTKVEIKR : 103

Q) What t1/2 value was documented for this binder, TBD-11 (anti-TROP2 Fab, HC R98A) (Fab, V domains shown, also called TBD-11 (HC R98A mutant)) VH: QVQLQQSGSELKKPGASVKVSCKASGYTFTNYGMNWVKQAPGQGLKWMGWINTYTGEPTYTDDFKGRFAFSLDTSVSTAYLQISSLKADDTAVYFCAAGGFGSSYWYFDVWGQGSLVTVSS VL: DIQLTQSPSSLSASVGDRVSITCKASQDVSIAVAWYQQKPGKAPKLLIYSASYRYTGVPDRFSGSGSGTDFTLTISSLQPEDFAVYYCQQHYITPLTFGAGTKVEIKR ?
A) 10
